experiment: soluble fraction after stress (log2 fold change); higher = more stays soluble; pooled small domains, quantitative proteomics; conditions: stress: 50 degC
Item-by-item account of soluble fraction (log2)
REPORTED ENDPOINT: soluble fraction (log2)

HMPVFSLTPRELEILEWMSTPNTYRQIAAQLSVSEETVRSHAKNILEKMRQPNRAQAVLAAVKMGLIKL: -0.819
HMKKAENEKLNIPYDVTEFLASSIKDDIRMMEGAMVKLLALSSLTKQDITQSLAKRVIQDVLGSSA: -0.097
HMPTITSPMVGTFYRAPSPGAAPFIEVGDTVKKGQVIGIIEAMKLLNEVEADKDGVVQAFAAENGEL: 0.262
HMEAEVIKTASDMADRNGLHNVSLKAIAENLGIRTPSLYNHIGSLDELLREIAHSGMRTMNE: 0.02
HMVSKQVTVNGIQYYQYTVQKSEGFYAISTKFGVTQDDIILANPSTKEGLRVGQEILIPIKT: -0.186
HMGADGIPGKNGENGETSYVHFAYATSADGKTGFSTTDTVGKTYMGQYADFEKADSEDPTKYRWGKFQGP: 0.102
HMSDRFVRIVMNDGTVKLGQMISEDADFIRLKTNNLGELNIPKYLVLDMMDLTRSEYVRLSISNAG: 0.169
HMNRQTGTVKWFNDAKGFGFITPESGPDLFVHFRSIQGAGFKSLQEGQRVTFVAVQGQKGMQADQVQA: -0.762
HMRLHSSGEDYLKAIFILEAQHSSVRSVEVAEYMNVSKASVSHAVALLKKNGFLKMNQDYDLTER: 0.0124
HMHGERVVTAGQTVRVVFTSNGLQVSSEGKALAAGAVGDDIQVRAASGKVIRGTVTGPGVVQV: 0.231
HMGIERTNADTSFSVNVYGKELIITSNKPLVVNIYAIDGTLVRTEQVTIGVNTVSGLPSGIYVVGQQKVVI: 0.297
HMDENDPYEILEIDRLASDDQVKAKYRALIRENHPDVLMAKGVPQEFIDLANRKMAVINAAYDRIEKEREF: -0.0184
HMGQISLSVNAIPEKAEVILDGNSIGNTPIRKNTITPGSHMFEIEKKGYAPISYDIYVNPSKAINLDFFM: -0.63
HMDTITMAGERYAVSDLEKVSGDIFEKAFGFEIDPKTADAKDVLPTMPKSDVDLFKKLSGIKP: 0.19
HMTVNLPPKQKAAILLMSLPPEVSAQLFKELGPDEVHAITLEISKLPPISPDVRAQVIDEFLHSS: -0.152
HMKNEVENLSYMINRIIEYRDLNNLSNKNLANKIGISEALLSYILNGRRKLSKEIQRKIALFLLND: -1.49
HMEAPNELLVPEGARPARADRVLAAAFPEHSRTALQRAFDAGLVRRANLVLSRDTAVAGGDRIAFSLPAV: -0.00557
HMAAINTYQVRKIYAIAGALGMKSRDGDDALHDLVFGMTGKQHISGLTSAEAYDVIAELEKKQ: -1.66
HMEPLVSKVFQVSYQKTADLVALIKSEDSKLLSARGTLISDERTSQIFVQDTPTRLERISMIVNGL: -0.883
HMLSLGIMEADMLKTGKHTISGISKATPEQRQKIDSDIEELKKKYPEKNITSKVENDNLIVESGVTAP: 0.278
HMLTLDEKRRLQIMRVQVALTSLGLYNGRVDGVLNAETKLGLEFFQDLKGLPKSGTMTTPTLNALGVPA: -0.423
HMPVASNRDVNLDIGERVFVQEWAPNRTARVQYRGSPWEARLAPGAPAAAGEHRVSAVEGNWLVLEPA: -0.0102
HMSTALTPLTTREREVLALMAEGLTNSGIAARLVLTDRTVETHVSRILHKLGLGETTTNEHRRVLAVLRYL: -1.5
HMSGPSDRDLFDEALALLSGSGREPDYHEARIRLGTLVEQFPESKWAEGAKALLSMLDRVSALQV: 0.246
HMKEETEMVTIPDVTGKPLTEAANLLREAKLDYLAESTGTSVTKQMPLPGAEVMVNTTVLLYTG: 0.156
HMSQQVVTDGVNLRLRYAPSPDAETYKWADGTNRHPEKGERFPYLGDIGDFYRIDYKGLVLYVSKQHTHL: -1.85
HMESIPDELLEAFKQDPAFKQAFYALTAGRQRGYIIHFSQPKQSQTRIGRIEKYKEQIFNGIGLN: -0.643
HMDFITPYEIEQGQYEGAELYEDGKFEEAFSLSSIAAQRGMKTAQYLLGIMFLKGEYVDQSLAIGMAW: -0.272
HMEVAAAENYRSKLSSFAKDTISVWQTELLLGTISDDDKASLTEWMAYIKALQVVDTSDPESITWPTEPT: -1.45
HMTGWINVDKNWYYMNNSGSMARGMINVNNVSYYLDENGKMLSNTTVNVNGTDYRIDASGAMSQI: -0.564
HMGVPELHKGEIVQAVVEKVLGEGLLRVNLKGMTVEAATSLRLNPGQQLLLRSEGIENGRQVLR: 0.00868
HMETPLSAADFKIVFGEEYEIGTDANGLPKMGSRINRQLQNRFLTWASVNKRKATMSAYQDWVASDPAAQ: -0.336
HMAKDEYGLTSNQRAFADEYIRNKGNATQAYLFAYPHIKKENTAAVNASRLLRNAKVSKYIADRTKEIL: 0.287
